Test system: SEM cells
Assay: cell viability relative to DMSO control; higher = less cytotoxic
Settings: HPLM + 10% dialyzed FBS; 48 h; 5.12 µM
value.type: cell viability (%)
Numeric only. Scale: %

Field request: cell viability | item: CC/C(=C(/c1ccc(O)cc1)c1ccc(OCCNC)cc1)c1ccccc1 65.6

Look up cell viability for this compound: O=C(NCC[S+](=O)([O-])c1ccc(C(F)(F)F)cn1)c1ccc(Cl)cc1 101

Reported cell viability for CN[S+](=O)([O-])Cc1ccc2[nH]cc(CCN(C)C)c2c1 : what is it? 118

Which cell viability reading was recorded for the compound C[C@]12C[C@H](O)[C@H]3[C@@H](CC\C4=C\C(=O)\C=C/[C@]34C)[C@@H]1CC[C@]2(O)C(=O)CO ? 44.8

cell viability for Nc1ccccc1NC(=O)c1ccc(CNC(=O)OCc2cccnc2)cc1 ? 8.14

cell viability for COc1nccc(-c2c(-c3ccc(F)cc3)ncn2C2CCNCC2)n1 ? 102

Fill in the blank: the reported cell viability of CC1(C)Cc2c(-c3ccccc3)c(-c3ccc(Cl)cc3)c(CC(=O)O)n2C1 is ____. 124

Which cell viability is listed for NCC1(CC(=O)O)CCCCC1 ? 121

What cell viability value was documented for this compound, CC[C@H](CC[C@@H](C)[C@H]1CC[C@H]2[C@@H]3C\C=C/4C[C@@H](O)CC[C@]4(C)[C@H]3CC[C@]12C)C(C)C ? 116
